Measured IC50, listed per entry for reference.
- Test system: Hepatitis C virus
- ASSAY EXPLANATION: Inhibition of HCV 1b BK delta21 NS5B delta21 polymerase
- Parameters: species or system Hepatitis C virus subtype 1b

// known answers, use as guide
1) CC(C)CCn1nc(-c2cccs2)c(O)c(C2=CS(=O)(=O)c3cc(NS(C)(=O)=O)ccc3N2)c1=O; < 10 nM
2) CC(C)(C)CCn1c(=O)c(C2=CS(=O)(=O)c3cc(NS(C)(=O)=O)ccc3N2)c(O)c2cccn21; < 10 nM

Moving on to the next molecule.
GET /value?item= CCC(C)(C)CCn1nc(-c2cccs2)c(O)c(C2=CS(=O)(=O)c3cc(NS(C)(=O)=O)ccc3N2)c1=O &field=IC50 returns < 10 nM

---

- ASSAY EXPLANATION: Metabolic stability in human liver microsomes assessed as half life
- Format: ADME, Microsome
Measured half-life, listed per entry for reference.

GET /value?item= CC(C)(C)CCn1c(=O)c(C2=CS(=O)(=O)c3cc(NS(C)(=O)=O)ccc3N2)c(O)c2cccn21 &field=half-life returns 30 min

GET /value?item= CC(C)CCn1c(=O)c(C2=CS(=O)(=O)c3cc(N(C)S(C)(=O)=O)ccc3N2)c(O)c2cccn21 &field=half-life returns > 60 min

GET /value?item= Cc1ccc(-c2nn(Cc3ccccc3)c(=O)c(C3=CS(=O)(=O)c4cc(N(C)S(C)(=O)=O)ccc4N3)c2O)s1 &field=half-life returns > 60 min
